# Tested on: HepG2
# Protocol text: cell viability relative to DMSO; higher = less toxic
# Reported conditions: 72 h; 1000 nM
Experimental endpoint: cell viability (%)
Answer with a number only, understood to be in %.

Examples with answers:
compound=CC(=O)Nc1c(I)cc(I)c(C(=O)O)c1I experimental_endpoint="cell viability" unit_tag=% measured_value=95.8
compound=c1ccc2oc(C3=NCCN3)cc2c1 experimental_endpoint="cell viability" unit_tag=% measured_value=98

Look up HepG2 data: cell viability of "C[C@]12CC[C@H](O)CC1=CC[C@@H]1[C@@H]2CC[C@]2(C)C(n3cnc4ccccc43)=CC[C@@H]12" , then report it.
99.3

Look up HepG2 data: cell viability of "Nc1nc(=O)c(Br)c(-c2ccccc2)[nH]1" , then report it.
103

Look up HepG2 data: cell viability of O=[N+]([O-])c1nccn1CC(O)CN1CCCCC1 (stereo not given) , then report it.
95.4
